// provenance: the RNAGym collection of RNA variant scans (doi:10.1126/science.aae0568)

B1: tRNA (parent)
chain: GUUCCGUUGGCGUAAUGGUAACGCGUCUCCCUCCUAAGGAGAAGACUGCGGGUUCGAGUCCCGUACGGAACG

Variants of: B1
Assay: yeast fitness relative to wild type (ratio to wild type); higher = fitter; tRNA-Arg(CCU), competitive growth, 37 C, YPD
Fewer inactive variants are shown than the library holds.
Assay Metric: yeast fitness
Number only, no unit.

// lookup yeast fitness for C27A G58C
1.13

// lookup yeast fitness for C22G C34U
0.696

// lookup yeast fitness for G56C C61U
0.747

// lookup yeast fitness for U16C C30U
0.893

// lookup yeast fitness for C5U C31A A45C
0.681

// lookup yeast fitness for C22A G68C
0.822

// lookup yeast fitness for C27U A40C A57U
0.606
